Test system: super sensitive Gram-negative Escherichia coli (E. coli) BAS849
testSummary: Antibacterial activity, microbroth dilution MIC, E. coli BAS849
Format: cell-based
cond: Escherichia coli, read-out: MIC, BAS849
observable: MIC

                                   compound           obsvalue
0  CCc1cc(C(=O)O)c(=O)[nH]c1-c1ccc(N2C[C@H]3CCC[C@@H](N(C)Cc4ccccc4)[C@H]3C2)cc1.O=C(O)C(F)(F)F     1 to 3.5 µg/mL
1  CCc1cc(C(=O)O)c(=O)[nH]c1-c1ccc(N2CCC(CN(C)Cc3ccccc3)C2)cc1.O=C(O)C(F)(F)F (stereo not shown)          < 1 µg/mL
2  CCc1cc(C(=O)O)c(=O)[nH]c1-c1ccc(N2C[C@@H]3[C@@H](N)[C@@H]3C2)cc1F          < 1 µg/mL
3  CCc1cc(C(=O)O)c(=O)[nH]c1-c1ccc(N2CCC(C)(N)C2)cc1.O=C(O)C(F)(F)F (stereo not shown)          < 1 µg/mL
4  CCc1cc(C(=O)O)c(=O)[nH]c1-c1ccc(N2C[C@H]3CCC[C@@H](N)[C@H]3C2)cc1.O=C(O)C(F)(F)F  3.5 to 12.5 µg/mL
5  CCc1c(-c2ccc(N3CC(N)C4(CC4)C3)cc2)[nH]c(=O)c(C(=O)O)c1O.O=C(O)C(F)(F)F (stereo not shown)          < 1 µg/mL
6  CCc1cc(C(=O)O)c(=O)[nH]c1-c1ccc(N2CCNCC2)c(F)c1.O=C(O)C(F)(F)F  12.5 to 150 µg/mL
